experiment: Clearance in mouse liver microsomes; format: ADME, Microsome
endpoint-label: CLhep predicted (mL/min/kg)

COC(=O)c1c(Cc2ccc(C(=O)NC3(CO)CC3)cc2)c(=O)c2cccnc2n1-c1ccccc1    45
COC(=O)c1c(Cc2ccc(C(=O)NCCO)cc2)c(=O)c2ccc(Cl)cc2n1-c1ccccc1    67
COC(=O)c1c(Cc2ccc(C(=O)N[C@H]3[C@@H]4C[C@@H]5C[C@H]3C[C@@](O)(C5)C4)cc2)c(=O)c2cccnc2n1-c1ccccc1    81
COC(=O)c1c(Cc2ccc(C(=O)NC(C)(C)CO)cc2)c(=O)c2cccnc2n1-c1ccccc1    58
COC(=O)c1c(Cc2ccc(C(=O)N[C@@H]3[C@@H]4C[C@@H]5C[C@H]3C[C@@](O)(C5)C4)cc2)c(=O)c2cccnc2n1-c1ccccc1    59

* * *

experiment: Cmax in C57 mouse at 30 mg/kg, po; assay type: ADME, organism-based; set-up: dose 30 mg/kg, route oral; conditions: in vivo
endpoint-label: Cmax (ng/mL)

COC(=O)c1c(Cc2ccc(C(=O)NC(C)(C)CO)cc2)c(=O)c2cccnc2n1-c1ccccc1    3840

a = COC(=O)c1c(Cc2ccc(C(=O)N[C@@H]3[C@@H]4C[C@@H]5C[C@H]3C[C@@](O)(C5)C4)cc2)c(=O)c2cccnc2n1-c1ccccc1
b = COC(=O)c1c(Cc2ccc(C(=O)NC3(CO)CC3)cc2)c(=O)c2cccnc2n1-c1ccccc1
Prompt line: Which value of Cmax is numerically greater: that of a or that of b ? Write the label of whichever entry you select.
Response line: a

* * *

assay: Plasma concentration in C57 mouse at 30 mg/kg, po measured at 8 hrs; type: ADME, organism-based; design: dose 30 mg/kg, route oral
endpoint-label: concentration at 8 h (nM)

// solved cases for concentration at 8 h follow
COC(=O)c1c(Cc2ccc(C(=O)N[C@H](CO)C(C)(C)C)cc2)c(=O)c2cccnc2n1-c1ccccc1    20
COC(=O)c1c(Cc2ccc(C(=O)NCC(C)(C)O)cc2)c(=O)c2cccnc2n1-c1ccccc1    740
COC(=O)c1c(Cc2ccc(C(=O)NC3(CO)CC3)cc2)c(=O)c2cccnc2n1-c1ccccc1    380
COC(=O)c1c(Cc2ccc(C(=O)N[C@H]3CC[C@H](O)CC3)cc2)c(=O)c2cccnc2n1-c1ccccc1    810

I = COC(=O)c1c(Cc2ccc(C(=O)NC(C)(C)CO)cc2)c(=O)c2cccnc2n1-c1ccccc1
II = COC(=O)c1c(Cc2ccc(C(=O)N[C@@H]3[C@@H]4C[C@@H]5C[C@H]3C[C@@](O)(C5)C4)cc2)c(=O)c2cccnc2n1-c1ccccc1
Prompt line: Returns the identifier with the smallest measured concentration at 8 h among I and II . Reply briefly: the label of your chosen item.
Response line: I

* * *

assay: Volume of distribution in C57 mouse at 5 mg/kg, iv administered as DMSO formulation; assay type: ADME, organism-based; set-up: dose 5 mg/kg, route intravenous; conditions: in vivo
endpoint-label: Vd (L/kg)
Output spec: scalar in L/kg, unitless text.

Prompt line: Which Vd value belongs to COC(=O)c1c(Cc2ccc(C(=O)N[C@@H]3[C@@H]4C[C@@H]5C[C@H]3C[C@@](O)(C5)C4)cc2)c(=O)c2cccnc2n1-c1ccccc1 ?
Response line: 0.3
